Provenance of the data: PubChem BioAssay (NCI)

Tested on: UO-31 renal
Test: NCI-60 one-dose screen, 48 h
Conditions: 10 µM unless noted
Compounds without any hit were thinned out: in the full panel of roughly 83,000, 20% have a hit. Calls of active or inactive are those of the source. Rule for the calls: active = growth percent below 10; inactive = the rest.
Outcome codes: active, inactive

>>> classification("COc1ccc(-c2nc3cc(C)ccc3n2CC(=O)N=Nc2c(O)[nH]c3ccc(Br)cc23)cc1")
"inactive"
>>> classification("COc1ccc(/C=C/c2nc3ccccc3c(=O)n2CC(=O)Nc2ccc(Cl)cc2)cc1")
"inactive"
>>> classification("O=c1oc2ccccc2cc1-c1csc(N=Nc2c(O)[nH]c3ccc(Cl)cc23)n1")
"inactive"
>>> classification("C=C1CC[C@@H]2[C@]3(C)COC(c4ccccc4)O[C@@H]3CC[C@@]2(C)[C@@H]1C/C=C1/C(=O)OCC1OC(C)=O (stereo partly specified)")
"active"
>>> classification("COc1ccc(-c2nc(SCC(C)C)nc(NCCc3c[nH]c4ccccc34)c2C#N)cc1")
"inactive"
>>> classification("COc1ccc2[nH]cc(-c3nnc(N)nc3-c3cn(C)c4ncc(Br)cc34)c2c1")
"inactive"
>>> classification("COc1ccc(C(=O)/C=C/c2ccc(Cl)c(Cl)c2)cc1S(N)(=O)=O")
"active"
>>> classification("CC1=C(C(=O)OC(C)C)C(c2cccc(O)c2)NC(=S)N1 (stereo unspecified)")
"inactive"
>>> classification("COc1ccc(C(=O)Nc2n[nH]c(Nc3ccccc3)c2C#N)cc1")
"inactive"
>>> classification("CN(C)CCCNC(=O)c1cc(NC(=O)c2cc(NC(=O)c3ccc(/C=C/c4ccccc4)cc3)cn2C)cn1C")
"inactive"
>>> classification("COc1ccc(N2N=C(c3ccc4c(c3)OCO4)CC2c2cccc(NC(=O)CCNS(=O)(=O)c3ccc(Cl)cc3)c2)cc1 (stereo unspecified)")
"inactive"
>>> classification("Cc1ccc(C(=O)CSc2nc3ccc(F)cc3c(=O)n2-c2ccc(Cl)cc2)cc1")
"inactive"
>>> classification("C#CCOc1cc(N(CC)CC)ccc1C(C(=O)NC(C)(C)C)N(C(=O)C1CCc2cc(F)ccc2O1)c1ccc(F)c(Cl)c1 (stereo unspecified)")
"inactive"
>>> classification("Cn1cc(-c2nc(N)nnc2-c2c[nH]c3ccc(F)cc23)c2cccnc21")
"inactive"
>>> classification("C=C1CC[C@@H]2[C@]3(C)COC(c4cn(-c5ccccc5)nc4-c4cccc([N+](=O)[O-])c4)O[C@@H]3CC[C@@]2(C)[C@@H]1C/C=C1/C(=O)OC[C@H]1O (stereo partly specified)")
"inactive"
>>> classification("COc1cc(NC(=O)c2cccc(C3CCc4c(cc(OC)c(OC)c4OC)O3)c2)cc(OC)c1OC (stereo unspecified)")
"active"
>>> classification("N#Cc1c(-c2cccc(Cl)c2Cl)cc(-c2c[nH]c3ccccc23)[nH]c1=O")
"inactive"
>>> classification("CC1=C(C(=O)c2ccccc2)C(c2ccc(-n3cncn3)cc2)n2c(nc3ccccc32)N1 (stereo unspecified)")
"active"
>>> classification("COc1ccc2c(c1)C(=N/N=C(\\C)c1ccc(OC)c(S(N)(=O)=O)c1)C(=O)N2")
"inactive"
>>> classification("CC12CC[C@@H]3[C@]4(C)COC(c5c(F)cccc5F)O[C@@H]4CC[C@@]3(C)[C@@H]1CC(C1=CCOC1=O)O2 (stereo partly specified)")
"inactive"
>>> classification("Cn1cc(-c2cc(N)n3nc(-c4c[nH]c5ccccc45)cc3n2)c2cc(Br)cnc21")
"active"
>>> classification("Brc1ccc(N/N=C/c2c[nH]c3ccc(Br)cc23)nc1")
"active"
>>> classification("S=C(NCCc1ccccc1)Nc1ccc(OCc2nc3ccccc3[nH]2)cc1")
"inactive"
>>> classification("Cc1cc2nc3c4ccccc4n(CCNCCN(C)C)c3nc2cc1C")
"active"
>>> classification("C/C(=N\\N=C1/C(=O)Nc2ccc(Cl)cc21)c1ccc2c(c1)Nc1ccccc1S2")
"inactive"
>>> classification("N#Cc1c(NCc2ccccc2)n[nH]c1Nc1ccccc1")
"inactive"
>>> classification("C=C1CC[C@@H]2[C@]3(C)COC(c4cn[nH]c4-c4ccccc4)O[C@@H]3CC[C@@]2(C)[C@@H]1C/C=C1/C(=O)OCC1O (stereo partly specified)")
"active"
>>> classification("C/C(=N\\N=C1/C(=O)Nc2ccccc21)c1ccc2c(c1)Nc1ccccc1S2")
"inactive"
>>> classification("CC1=C(C(=O)OCc2ccccc2)C(c2ccc(-n3cncn3)cc2)n2c(nc3ccccc32)N1 (stereo unspecified)")
"inactive"
>>> classification("COc1cc(C2CC(c3cc(OC)c(OC)c(OC)c3)=Nc3c(N)nc(N)nc3N2)ccc1Oc1nc(NCCO)nc(N2CCOCC2)n1 (stereo unspecified)")
"inactive"
>>> classification("CN(C)CCCNC(=O)c1cc(NC(=O)c2cc(NC(=O)c3ccc(C#Cc4ccccc4)cc3)cn2C)cn1C")
"inactive"

###

Tested on: RPMI-8226 leukemia
Test: NCI-60 one-dose screen, 48 h
Details: 10 µM unless noted
The panel holds about 83,000 compounds, 20% with a hit somewhere; the sample as a whole holds those more often. Activity calls are given as the source filed them. How the source made its calls: active means growth percent below 10; inactive means the rest.
Outcome codes: active, inactive

>>> classification("CC1(C)CC[C@]2(C(=O)O)CC[C@]3(C)C(=CCC4[C@@]5(C)C[C@@H](O)[C@@H]6OC(c7ccc(F)cc7)OC[C@@]6(C)C5CC[C@]43C)C2C1 (stereo partly drawn)")
"active"
>>> classification("Brc1ccc(N/N=C/c2c[nH]c3ccc(Br)cc23)nc1")
"active"
>>> classification("Cn1cc(-c2cc3nc(-c4c[nH]c5ccc(Br)cc45)cc(N)n3n2)c2ccccc21")
"active"
>>> classification("CN(C)c1nc(NCCNS(=O)(=O)c2ccc(C3=Nc4c(N)nc(N)nc4NC(c4ccc(Cl)cc4)C3)cc2)nc(Nc2ccc(F)cc2)n1 (stereo not drawn)")
"active"
>>> classification("C=C1CCC2C3(C)COC(c4ccccc4F)OC3CCC2(C)C1CC(O)C1=CCOC1=O (stereo not drawn)")
"inactive"
>>> classification("C=C1CCC2C3(C)COC(c4ccc(F)cc4)OC3CCC2(C)C1CC(O)C1=CCOC1=O (stereo not drawn)")
"inactive"
>>> classification("NS(=O)(=O)c1ccc(CCNC(=O)CSc2ccc(-c3ccc(Br)cc3)nn2)cc1")
"inactive"
>>> classification("Cc1cc(N=C2NC(=O)CS2)n[nH]1")
"inactive"

###

Tested on: ACHN renal
Experiment: NCI-60 one-dose screen, 48 h (100 = growth as untreated, 0 = no growth, -100 = all killed)
Settings: 10 µM unless noted
The panel holds about 83,000 compounds, 20% with a hit somewhere; the sample as a whole holds those more often. The source made the active and inactive calls. Rule for the calls: active = growth percent below 10; inactive = the rest.
Attribute: growth
Measurement Type: growth

>>> reported("CCCSc1nc(Nc2ccc(S(N)(=O)=O)cc2)c(C#N)c(-c2ccc(Cl)cc2)n1")
"-66.8% (active)"
>>> reported("O=C(N=Nc1c(O)[nH]c2ccc([N+](=O)[O-])cc12)c1ccc2nc(-c3ccccc3)[nH]c2c1")
"101% (inactive)"
>>> reported("COc1ccc(-c2nc3cc(C)ccc3n2CC(=O)N=Nc2c(O)[nH]c3ccc(Br)cc23)cc1")
"15.5% (inactive)"
>>> reported("CN(C)CCCNC(=O)c1cc(NC(=O)c2cc(NC(=O)c3ccc(C#Cc4ccccc4)cc3)cn2C)cn1C")
"19.2% (inactive)"
>>> reported("CC12CC[C@@H]3[C@]4(C)COC(c5cn[nH]c5-c5cccc(Cl)c5)O[C@@H]4CC[C@@]3(C)[C@@H]1CC(C1=CCOC1=O)O2 (stereo partly drawn)")
"31.3% (inactive)"
>>> reported("CNC(=O)c1cc(Oc2ccc3nc(NC(=O)Nc4cccc(OC(F)(F)F)c4)sc3c2)ccn1")
"-2.02% (active)"
>>> reported("CCCCSc1nc(Nc2ccc(S(N)(=O)=O)cc2)c(C#N)c(-c2cc(OC)c(OC)c(OC)c2)n1")
"12.2% (inactive)"
>>> reported("O=C(CCN1C(=O)/C(=C/c2ccc(F)cc2)SC1=S)N1CCOCC1")
"63.6% (inactive)"

###

System: IGROV1 ovarian
Assay: NCI-60 one-dose screen, 48 h (100 = growth as untreated, 0 = no growth, -100 = all killed)
Settings: 10 µM unless noted
This is part of a sample that, as a whole, favours compounds with a hit. Of some 83,000 tested, about 20% had one in any assay. Active and inactive are the calls of the source. The calls were made as follows: active = growth percent below 10; inactive = the rest.
Attribute: growth
Measurement Type: growth

>>> reported("Cn1cc(-c2nnc(N)nc2-c2c[nH]c3ccc(F)cc23)c2cccnc21")
"40.7% (inactive)"
>>> reported("COc1ccc(-c2c(Nn3cnnn3)no[n+]2[O-])cc1")
"19.8% (inactive)"
>>> reported("CC(=O)N1CCN(Cc2ccc3c(NNC(=O)c4cnccn4)nc4cc(F)ccc4n23)CC1")
"28.2% (inactive)"
>>> reported("Cc1c(C(=O)NNC(=O)c2ccc(Cl)cc2)nnn1-c1ccc(Cl)cc1")
"106% (inactive)"
>>> reported("CCOC(=O)C1=C(N)N(c2ccccc2)C2=C(C(=O)CC(C)(C)C2)C1c1ccc(N2CCOCC2)cc1 (stereo not drawn)")
"108% (inactive)"
>>> reported("COc1ccc(-c2ccc(SCC(=O)NCCc3ccc(S(N)(=O)=O)cc3)nn2)cc1")
"82% (inactive)"
>>> reported("NS(=O)(=O)c1ccc(-n2cc(-c3cccc(NC(=O)c4cc(C(F)(F)F)cc(C(F)(F)F)c4)c3)nn2)cc1")
"63.1% (inactive)"
>>> reported("C#CCOc1cc(N(CC)CC)ccc1C(C(=O)NC(C)(C)C)N(C(=O)C1CCc2cc(F)ccc2O1)c1ccccc1F (stereo not drawn)")
"54% (inactive)"
>>> reported("CCCCOc1ccc(NC(=O)c2sc3nc(C)ccc3c2N)cc1")
"17.7% (inactive)"
>>> reported("C=CC(=O)Nc1ccc(C)c(Oc2ccc(Cl)cc2)c1")
"46.4% (inactive)"
>>> reported("COc1ccc2oc3c4[nH]c5ccccc5c4c4c(c3c2c1)C(=O)N(C(=O)OC(C)(C)C)C4=O")
"-1.25% (active)"
>>> reported("CC(C)c1sc(NC(=O)c2cc(NC(=O)c3cc(NC(=O)c4nccn4C)cn3C)cn2C)nc1C(=O)NCCCN(C)C")
"82.5% (inactive)"
>>> reported("O=C(/C=C/c1ccc(-c2ccccc2)cc1)c1nc2ccccc2n1Cc1ccc(Br)cc1")
"63.6% (inactive)"
